TARGET DESC: UniProtKB P09668
Sequence (P09668 whole entry): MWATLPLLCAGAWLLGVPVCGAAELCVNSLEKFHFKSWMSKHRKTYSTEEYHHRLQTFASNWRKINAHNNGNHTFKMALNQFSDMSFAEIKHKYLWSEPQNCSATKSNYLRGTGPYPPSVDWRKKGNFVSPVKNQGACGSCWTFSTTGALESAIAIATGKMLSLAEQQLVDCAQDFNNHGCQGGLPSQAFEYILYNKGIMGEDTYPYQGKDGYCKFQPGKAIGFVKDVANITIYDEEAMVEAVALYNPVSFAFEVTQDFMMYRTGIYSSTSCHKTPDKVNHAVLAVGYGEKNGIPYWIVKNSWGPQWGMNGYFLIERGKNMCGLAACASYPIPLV
PROTOCOL TEXT: Uncompetitive inhibition of human liver cathepsin H endopeptidase activity using R-AMC substrate assessed as inhibition constant for enzyme-substrate-inhibitor complex
MEASUREMENT TYPE: pKi
Hey, just a heads up that pKi is the negative log base 10 of the concentration in molar.

Request: Return reported pKi. Input compound: "O=[N+]([O-])c1ccc(N2CCCC2)c2ccccc12"
Response: 3.60

Here's the next entry for you.
Request: State its pKi: "Nc1c(Br)cc([N+](=O)[O-])c2ccccc12"
Response: 3.45

Measured values drawn from ChEMBL document CHEMBL2311469 for this set.
